Target: soluble cyno CD74 (cyno)
Sequence (P04233 other isoform, or with tags, fused parts or gaps): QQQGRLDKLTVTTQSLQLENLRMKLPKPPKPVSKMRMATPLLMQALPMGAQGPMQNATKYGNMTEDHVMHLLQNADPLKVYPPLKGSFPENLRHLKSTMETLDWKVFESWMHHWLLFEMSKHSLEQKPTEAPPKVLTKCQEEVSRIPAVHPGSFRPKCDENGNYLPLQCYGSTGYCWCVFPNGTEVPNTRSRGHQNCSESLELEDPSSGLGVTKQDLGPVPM
Test: SPR, Biacore 8K; IgG captured by anti-IgG Fc, soluble CD74 as analyte; 1:1 model, apparent kinetics
observation_type: pKd
Expect pKd as a plain number equal to -log10 of the molar concentration.

Recorded pKd of Hcmil x LCmil_NQ (antibody, V domains shown, Tested as IgG; also called hLL1 heavy chain with hLL1 (NQ) light chain) VH: QVQLQQSGSELKKPGASVKVSCKASGYTFTNYGVNWIKQAPGQGLQWMGWINPNTGEPTFDDDFKGRFAFSLDTSVSTAYLQISSLKADDTAVYFCSRSRGKNEAWFAYWGQGTLVTVSS VL: DIQLTQSPLSLPVTLGQPASISCRSSQSLVHRNQNTYLHWFQQRPGQSPRLLIYTVSNRFSGVPDRFSGSGSGTDFTLKISRVEAEDVGVYFCSQSSHVPPTFGAGTRLEIK , please.
7.59

Find the recorded pKd belonging to Mil_HCx hzVk1b (antibody, V domains shown, Tested as IgG; also called hLL1 heavy chain with hzLL1-Vk1b light chain) VH: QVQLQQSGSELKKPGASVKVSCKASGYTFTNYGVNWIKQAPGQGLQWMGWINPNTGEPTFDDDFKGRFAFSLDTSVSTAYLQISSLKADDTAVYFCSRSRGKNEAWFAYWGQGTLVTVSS VL: DVVMTQSPLSLPVTLGQPASISCRSSQSLVHRNGNTYLHWYQQRPGQSPRLLIYTVSNRFSGVPDRFSGSGSGTDFTLKISRVEAEDVGVYFCSQSSHVPPTFGQGTKLEIK and report it.
8.29

# lookup: pKd of VHmil x VK1bNQ (antibody, V domains shown, Tested as IgG; also called VHmil × VK1bNQ; hLL1 heavy chain with hzLL1-Vk1b (NQ) light chain) VH: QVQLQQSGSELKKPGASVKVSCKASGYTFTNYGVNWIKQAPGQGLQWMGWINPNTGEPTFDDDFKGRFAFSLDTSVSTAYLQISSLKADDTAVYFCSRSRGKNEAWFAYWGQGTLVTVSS VL: DVVMTQSPLSLPVTLGQPASISCRSSQSLVHRNQNTYLHWYQQRPGQSPRLLIYTVSNRFSGVPDRFSGSGSGTDFTLKISRVEAEDVGVYFCSQSSHVPPTFGQGTKLEIK
8.28

Could you tell me which pKd is on file for milatuzumab (antibody, V domains shown, also called hLL1; WT IgG) VH: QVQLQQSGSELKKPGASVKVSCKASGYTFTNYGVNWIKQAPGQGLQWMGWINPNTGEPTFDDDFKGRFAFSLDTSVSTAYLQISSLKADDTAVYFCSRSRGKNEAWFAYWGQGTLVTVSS VL: DIQLTQSPLSLPVTLGQPASISCRSSQSLVHRNGNTYLHWFQQRPGQSPRLLIYTVSNRFSGVPDRFSGSGSGTDFTLKISRVEAEDVGVYFCSQSSHVPPTFGAGTRLEIK ?
7.80

Recorded pKd for VHmil x VK1aNQ (antibody, V domains shown, Tested as IgG; also called VHmil × VK1aNQ; hLL1 heavy chain with hzLL1-Vk1a (NQ) light chain) VH: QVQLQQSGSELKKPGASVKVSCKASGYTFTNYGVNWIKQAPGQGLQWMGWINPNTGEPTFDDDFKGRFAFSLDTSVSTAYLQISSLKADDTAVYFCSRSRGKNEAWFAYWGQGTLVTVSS VL: DIVMTQTPLSLPVTPGEPASISCRSSQSLVHRNQNTYLHWYLQKPGQSPQLLIYTVSNRFSGVPDRFSGSGSGTDFTLKISRVEAEDVGVYFCSQSSHVPPTFGQGTKLEIK , please?
8.23

Which pKd value belongs to Mil_HCx hzVk1a (antibody, V domains shown, Tested as IgG; also called hLL1 heavy chain with hzLL1-Vk1a light chain) VH: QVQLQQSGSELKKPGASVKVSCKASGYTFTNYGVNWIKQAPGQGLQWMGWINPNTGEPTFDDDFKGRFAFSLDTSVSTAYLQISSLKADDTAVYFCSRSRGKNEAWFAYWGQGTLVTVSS VL: DIVMTQTPLSLPVTPGEPASISCRSSQSLVHRNGNTYLHWYLQKPGQSPQLLIYTVSNRFSGVPDRFSGSGSGTDFTLKISRVEAEDVGVYFCSQSSHVPPTFGQGTKLEIK ?
8.24
